System: Nucleic Acid
Test: Variation in melting temperature (delta Tm) of helix-to-coil transition of DNA was reported.
Assay type: nucleic-acid assay
// values below are reported DeltaTm

[
  {
    "compound": "COC1C(CO)OC(n2c3c(Cl)cccc3c3c4c(c5c6cccc(Cl)c6[nH]c5c32)C(=O)NC4=O)C(OC(=O)CBr)C1O (centres undefined)",
    "DeltaTm": 0.5
  },
  {
    "compound": "COC1C(CO)OC(n2c3ccccc3c3c4c(c5c6ccccc6[nH]c5c32)C(=O)N(CCCCOC(=O)CBr)C4=O)C(O)C1O (centres undefined)",
    "DeltaTm": 0
  },
  {
    "compound": "COC1C(CO)OC(n2c3ccccc3c3c4c(c5c6ccccc6[nH]c5c32)C(=O)NC4=O)C(OC(=O)CBr)C1O (centres undefined)",
    "DeltaTm": 3.7
  },
  {
    "compound": "COC1C(COC(=O)CBr)OC(n2c3c(Cl)cccc3c3c4c(c5c6cccc(Cl)c6[nH]c5c32)C(=O)NC4=O)C(O)C1O (centres undefined)",
    "DeltaTm": 0.5
  },
  {
    "compound": "CO[C@H]1[C@H](O)[C@@H](O)[C@H](n2c3ccccc3c3c4c(c5c6ccccc6[nH]c5c32)C(=O)NC4=O)O[C@@H]1CO",
    "DeltaTm": 4.1
  },
  {
    "compound": "COC1C(CO)OC(n2c3c(Cl)cccc3c3c4c(c5c6cccc(Cl)c6[nH]c5c32)C(=O)NC4=O)C(OC(C)=O)C1O (centres undefined)",
    "DeltaTm": 0.5
  },
  {
    "compound": "COC1C(CO)OC(n2c3c(Cl)cccc3c3c4c(c5c6cccc(Cl)c6[nH]c5c32)C(=O)N(CC(=O)CCl)C4=O)C(O)C1O (centres undefined)",
    "DeltaTm": 1.2
  },
  {
    "compound": "COC1C(CO)OC(n2c3ccccc3c3c4c(c5c6ccccc6[nH]c5c32)C(=O)NC4=O)C(O)C1OC(=O)CBr (centres undefined)",
    "DeltaTm": 3.2
  },
  {
    "compound": "CO[C@H]1[C@H](O)[C@@H](O)[C@H](n2c3c(Cl)cccc3c3c4c(c5c6cccc(Cl)c6[nH]c5c32)C(=O)NC4=O)O[C@@H]1CO",
    "DeltaTm": 0
  }
]

---

Test system: P388
Test: Cytotoxicity against P388 leukemia cells
Assay type: functional, cell-based
Settings: Mus musculus
Each record is given Yes if its reported IC50 is strictly below 0.3 µM. Records at or above 0.3 µM are given No.

[
  {
    "compound": "COC1C(CO)OC(n2c3c(Cl)cccc3c3c4c(c5c6cccc(Cl)c6[nH]c5c32)C(=O)NC4=O)C(OC(C)=O)C1O (stereo not drawn)",
    "group-label": "No"
  },
  {
    "compound": "COC1C(CO)OC(n2c3ccccc3c3c4c(c5c6ccccc6[nH]c5c32)C(=O)NC4=O)C(O)C1OC(=O)CBr (stereo not drawn)",
    "group-label": "Yes"
  },
  {
    "compound": "COC1C(CO)OC(n2c3ccccc3c3c4c(c5c6ccccc6[nH]c5c32)C(=O)NC4=O)C(OC(=O)CBr)C1O (stereo not drawn)",
    "group-label": "No"
  },
  {
    "compound": "COC1C(CO)OC(n2c3c(Cl)cccc3c3c4c(c5c6cccc(Cl)c6[nH]c5c32)C(=O)NC4=O)C(OC(=O)CBr)C1O (stereo not drawn)",
    "group-label": "Yes"
  },
  {
    "compound": "COC1C(CO)OC(n2c3c(Cl)cccc3c3c4c(c5c6cccc(Cl)c6[nH]c5c32)C(=O)N(CC(=O)CCl)C4=O)C(O)C1O (stereo not drawn)",
    "group-label": "Yes"
  },
  {
    "compound": "COC1C(CO)OC(n2c3ccccc3c3c4c(c5c6ccccc6[nH]c5c32)C(=O)NC4=O)C(OC(C)=O)C1O (stereo not drawn)",
    "group-label": "No"
  },
  {
    "compound": "COC1C(CO)OC(n2c3ccccc3c3c4c(c5c6ccccc6[nH]c5c32)C(=O)N(CCCCOC(=O)CBr)C4=O)C(O)C1O (stereo not drawn)",
    "group-label": "No"
  },
  {
    "compound": "COC1C(COC(=O)CBr)OC(n2c3c(Cl)cccc3c3c4c(c5c6cccc(Cl)c6[nH]c5c32)C(=O)NC4=O)C(O)C1O (stereo not drawn)",
    "group-label": "No"
  }
]
